Recorded measurements of melting point, one per entry

CCCCCOc1ccc(C=O)cc1O
55 to 56 °C
Cc1nc(-c2ccc(F)cc2)c(-c2ccc(S(C)(=O)=O)cc2)s1
229 to 233 °C
CCCCCCCCCCCCCCCCCCOc1cccc(C(=O)C(=O)OC)c1
50 to 52 °C

input: Find the measured melting point of "CC(C)(C)C(=O)Oc1ccc(-c2nn(C3CCCC3)c3c(F)cccc23)cc1" and report it.
output: 105 °C

input: # return recorded melting point for input "NCc1ccc2c(c1)ncn2-c1cccc(-c2cccnc2)c1"
output: 107 to 110 °C

input: Please list melting point recorded for the compound "COc1ccc2c3c(c(=O)oc2c1)CN(Cc1ccccn1)CC3"
output: 140 to 142 °C

input: Look up and state reported melting point for "Cc1ccc(C(=O)c2c(C)cc(C)cc2O)cc1"
output: 102 to 105 °C

input: In one line, give reported melting point of the entry "CC(C)(C)OC(=O)NNC(=O)c1cc(OCc2ccccc2)c(OCc2ccccc2)c(CSc2ccncc2)n1" .
output: 181 to 182 °C

input: Return reported melting point. Input compound: "O=C(CC(c1ccccc1)(c1ccccc1)c1ccccc1)N1CC2=C(C1)c1cccc3cccc2c13"
output: 159 to 168 °C

input: Respond only with melting point recorded for "CC(=O)C(=Cc1cccc([N+](=O)[O-])c1)C(=O)OCCBr"
output: 94.5 to 95.5 °C

input: Quote melting point reported for "N#Cc1ccc(C(F)(F)F)cc1N=NNc1cc(C(F)(F)F)ccc1C#N" please.
output: 183 to 184 °C

input: Dear colleague, please send me the reported melting point for "O=c1[nH]c(CCCN2CCCC2)cc2c(O)cccc12" when you can.
output: 222 to 225 °C

input: Given CC(=O)NCCCCC(NC(C)=O)C(C)=O (stereo unspecified) , respond with its melting point.
output: 111 to 113 °C

input: Tell me melting point reported for CCCCCC(Cc1cnc(SCCC)n1Cc1ccccc1Cl)C(=O)O (stereo unspecified)
output: 122 to 124 °C

input: Report measured melting point; entry is "Cc1cc(N2CCc3ncccc3C2)nc(N2CCC(F)(F)CC2)c1[N+](=O)[O-]"
output: 168 to 169 °C

input: Return the recorded melting point value; entry: "COc1ccc(C(=O)Cc2c(Cl)cncc2Cl)c2c1OCCO2"
output: 158 to 160 °C
